Kindly supply the reported composite z-score values for the records listed here.
- System: glycogen synthase kinase-3 (GSK3A per assay name; protocol says GSK3B)
- Method Notes: compounds binding glycogen synthase kinase-3 – biochemical, small-molecule microarray, 635 nm fluorescence, GSK3A, primary screen (AID 1103); further: the record names both GSK3A and GSK3B
- Condition Details: fluorescence 635 nm, higher = more signal
Give a plain numeric answer without units written out.

Problem: Field request: composite z-score | item: CN1C(=O)C2C(C1=O)C1C=C(c3ccc(CO)cc3)C2C(C2CC2)N1Cc1cc2c(cc1Br)OCO2 (stereo unspecified)
Solution: 1.14

Problem: Given CCCC[C@@H]1C[C@H]1[C@@H](NC(=O)c1ccccc1)c1ccccc1 , state its recorded composite z-score.
Solution: -0.949

Problem: Which composite z-score value belongs to CC(C)C(=C=CC[C@H](O)c1ccccc1OCCO)CCO ?
Solution: -0.144

Problem: Quick check: composite z-score of O=C(CS)NCCCCCCNC(=O)[C@H]1C[C@H]2C(=O)N3CCC[C@H]3C(=O)N2[C@H]1c1ccc(O)cc1 ?
Solution: -0.477

Problem: Report composite z-score for O=P(NCC1(CC2(c3ccccc3)CO2)CC1)(c1ccccc1)c1ccccc1 (stereo unspecified) please.
Solution: -1.49

Problem: Item under review: C=C(C(=O)CC[C@@H](OC(=O)c1cccnc1)c1ccc(CO)o1)C(C)C . Reported composite z-score?
Solution: 0.803

Problem: Which composite z-score is listed for C=C[C@H](OC)[C@@H](OC(=O)Nc1ccc(SC)cc1)c1ccc(OCCO)cc1 ?
Solution: 0.0735

Problem: Value lookup for composite z-score; key = C=CCC(OC(C)=O)[C@@H]1[C@@H](N(Cc2cc3ccccc3o2)C(=O)c2cccc3ccccc23)c2cc(OCCCO)ccc2N1C(=O)Cc1ccc2ccccc2c1 (stereo partly specified)
Solution: -0.925

Problem: Can you look up the measured composite z-score of O=C1c2ccccc2[C@](Cc2ccccc2I)(C(=O)O)[C@H](c2ccc(CO)cc2)N1Cc1ccccc1C(F)(F)F for me?
Solution: 0.464

Problem: GET /values?readout=composite z-score&item= [N-]=[N+]=NCc1ccccc1C[C@]1(C(=O)NCCN2CCOCC2)N=C(c2ccc(OCCCO)cc2)O[C@H]1c1ccccc1CN=[N+]=[N-]
Solution: 1.32

Problem: Can you share its composite z-score? I mean this molecule: O=C1O[C@H](c2ccccc2)[C@H](c2ccccc2)N2[C@H]1[C@@H](C(=O)Nc1nc3ccccc3s1)[C@]1(C(=O)Nc3ccc(C#CC4=CCCCC4)cc31)[C@H]2c1ccc(OCCO)cc1
Solution: 1.3

Problem: Bench note: what composite z-score did CCCC[C@H]1C[C@@H]1[C@@H]1N(P(=O)(c2ccccc2)c2ccccc2)[C@](CO)(c2ccccc2)CC12CC2 show?
Solution: -0.571

Problem: Which measured composite z-score value corresponds to C=CCCN(CC#C[C@H]1Oc2ccccc2S(=O)(=O)N2CCC[C@@H]12)S(=O)(=O)c1ccc(C)cc1 ?
Solution: 0.0464

Problem: Suppose we examine the molecule O=c1cccc(-c2ccccc2)o1 ; what composite z-score value has been reported?
Solution: 0.211

Problem: For the molecule Cc1ccc(S[C@]2(C(=O)NCC(C)C)CC(=O)N(Cc3ccccc3)[C@@H]2c2ccc(CO)cc2)cc1 , what composite z-score is on record?
Solution: -0.919

Problem: # query: composite z-score of entry COCC1C2CC[C@H]3C(OCc4ccc(F)cc4C(F)(F)F)OC[C@]4(C)[C@H]3C2=C(CN4C(=O)OC(C)(C)C)[C@H](C)C1COC (stereo partly specified)
Solution: 0.366

Problem: I would be grateful if you could share the reported composite z-score for [N-]=[N+]=NCc1ccccc1[C@H]1OC(c2ccc(OCCCO)cc2)=N[C@@]1(Cc1ccccc1)C(=O)NCC(O)CO (stereo partly specified) .
Solution: 1.27

Problem: Request the reported composite z-score associated with O=c1cccc(-c2ccc3ccccc3c2)o1
Solution: -0.964

Problem: Entry CC(C)(C)OC(=O)CC[C@@]1(C(N)=O)N=C(c2ccc(OCCCO)cc2)O[C@@H]1c1ccccc1N=[N+]=[N-] has what composite z-score?
Solution: 1.22

Problem: What measured composite z-score goes with COC(=O)c1c2oc(c1C(=O)OC)C(=O)N[C@H](Cc1ccccc1)Cn1nncc1C1(CCCCC1)NC(=O)N[C@H](CO)CC2 ?
Solution: 0.129

Problem: GET /values?readout=composite z-score&item= CC(C)CNC(=O)[C@@]1(C)c2ccccc2C(=O)N(C(C)C)[C@H]1c1ccc(CO)cc1
Solution: -1.29

Problem: Name the reported composite z-score value associated with the molecule COc1ccc(C(=O)Nc2cccc(CN3C(=O)[C@@]4(O[C@@H](CC(=O)N5Cc6ccccc6C[C@H]5CO)[C@H]([Si](C)(C)c5ccc(OC)cc5)[C@H]4C)c4ccccc43)c2)cc1
Solution: 0.363

Problem: Item Cc1ccc(S[C@]2(C(=O)NCC(F)(F)F)CC(=O)N(C3Cc4ccccc4C3)[C@@H]2c2ccc(CO)cc2I)cc1 has what recorded composite z-score?
Solution: -1.3

Problem: Recorded composite z-score of COCCOC(=O)N1C(=O)[C@@]2(c3cc(C#CC4=CCCCC4)ccc31)[C@H](c1ccc(OCCO)cc1)N1[C@H](c3ccccc3)[C@H](c3ccccc3)OC(=O)[C@H]1[C@@H]2C(=O)Nc1nc2ccccc2s1 , please.
Solution: 1.29

Problem: Entry under review: CN(C)CCCCCCNC(=O)[C@@H]1C[C@@H]2C(=O)N[C@@H](Cc3ccccc3)C(=O)N2[C@@H]1c1cccc(OCCO)c1 . Reported composite z-score?
Solution: 1.31

Problem: Look up composite z-score for this molecule: Cc1ccc(S[C@]2(C(=O)NCCCN(C)C)CC(=O)N(C(C)C)[C@@H]2c2ccc(CO)cc2I)cc1
Solution: -0.627

Problem: Data request, read-out composite z-score, for C=C(C(=O)CC[C@@H](OC(C)=O)c1ccc(OCCO)cc1)C(C)C
Solution: -0.117

Problem: For COc1ccc([Si](C)(C)[C@H]2[C@H](CCO)O[C@@]3(C(=O)N(Cc4ccccc4)c4ccc(N5C(=O)COc6ccccc65)cc43)[C@@H]2C)cc1 , what is its reported composite z-score?
Solution: -0.965

Problem: Data request, read-out composite z-score, for O=C(NCc1ccccc1)[C@@H]1c2ccccc2C(=O)N(C2CCCCC2)[C@H]1c1ccc(CO)cc1
Solution: 0.0662

Problem: Given the molecule COc1ccc(C#Cc2ccc3c(c2)[C@]2(C(=O)N3)[C@H](C(=O)N3CCN(c4ncccn4)CC3)[C@H]3C(=O)O[C@H](c4ccccc4)[C@H](c4ccccc4)N3[C@@H]2c2ccc(O)cc2)cc1 , what is its reported composite z-score?
Solution: 0.967

Problem: GET /values?readout=composite z-score&item= C=C[C@@H](C)[C@@H](OC(=O)Nc1ccc(OC)cc1)c1ccc(O)c2ccccc12
Solution: 0.357

###

- System: Sonic hedgehog protein (Shh)
- Method Notes: Sonic hedgehog microarray binding compounds – biochemical, small-molecule microarray, 635/667 nm fluorescence, primary screen (AID 1151);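 further: Shh protein binding to compounds spotted on small-molecule microarray slides; score combines spot fluorescence intensity with signal-to-noise across triplicate slides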
- Condition Details: 635 nm fluorescence, higher = more signal
Measured Property: composite z-score

Problem: Which composite z-score is reported for this molecule? Cc1ccc(N2C(=O)c3ccccc3[C@@H](C(=O)NC(C)C)[C@@H]2c2ccc(CO)cc2)nc1
Solution: -0.473

Problem: For the molecule C=CC[C@@]1(C(=O)NCc2ccccc2)N=C(c2ccc(OCCCO)cc2)O[C@@H]1c1ccccc1CN=[N+]=[N-] , what composite z-score is on record?
Solution: -0.629

Problem: Using the record for C=CCN1C(=O)[C@@]2(O[C@@H](CCO)[C@H]([Si](C)(C)c3ccc(OC)cc3)[C@H]2C)c2cc(NC(C)=O)ccc21 , report its composite z-score.
Solution: 1.85

Problem: Param item = COCCOC(=O)N1C(=O)[C@@]2(c3ccccc31)[C@H](c1ccc(O)cc1)N1[C@H](c3ccccc3)[C@H](c3ccccc3)OC(=O)[C@H]1[C@@H]2C(N)=O ; retrieve measured composite z-score.
Solution: -0.218

Problem: // returns reported composite z-score for input CC(C)[C@H]1COC(=O)N1C(=O)[C@H]1[C@@H](c2ccccc2)N(c2ccccc2)O[C@@H]1C
Solution: 0.506

Problem: // query composite z-score value for entry CN1C(=O)C2C=CC(C(O)C3=C[C@H]4C[C@@H](C3)C4(C)C)N(Nc3ccc([N+](=O)[O-])cc3[N+](=O)[O-])C2C1=O (some centres not stated)
Solution: 0.0842

Problem: Fill in the blank: the reported composite z-score of C=C[C@@H](C)[C@@H](OC(=O)Nc1ccc(OC)cc1)c1ccc(O)c2ccccc12 is ____.
Solution: 1.53

###

- Method Notes: change in splice reporter luminescence, either direction, cell-based, HEK293, spliceosome inhibition project, primary screen (AID 1101);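 further: HEK293 cells carrying a splicing-competent luciferase reporter gene; test concentration not given here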
- Condition Details: HEK293 splicing luciferase reporter, 24 h, higher = more signal, called active from +8 up or from −8 down
Measured Property: z-score
Just the number, please, no unit after it.

Problem: Item COCCCNC(=O)[C@@]1(Sc2ccc(C)cc2)CC(=O)N(Cc2ccccc2)[C@@H]1c1ccc(CO)cc1 has what recorded z-score?
Solution: -0.74

Problem: Need z-score of COC(=O)[C@@]1(Cc2ccc(F)cc2)[C@H]2c3cc(C(=O)N4CCCC4)n(Cc4ccc(Cl)c(C(F)(F)F)c4)c3C[C@H]2CN1C(=O)c1ccccc1 , thanks.
Solution: -0.767

Problem: # input molecule: O=c1cccc(-c2ccc3ccccc3c2)o1 ; wanted: its z-score
Solution: -0.823
